# Test system: breast cancer cells MDA-MB-468
# experiment.summary: In vitro cytotoxic activity, CELLTITER 96 AQueous One Solution (MTS) assay, MDA-MB-468
# Format: cell-based, human
# condition.set: 72 h treatment, mean ± SD of 3 replicates, read-out: IC50 cytotoxicity, MDA-MB-468
quantity: IC50 (nM)
Give your result in nM as a bare value.

Please report the recorded IC50 for CC(O)[C@@]12O[C@]13c1cc(O)c4c(c1N[C@H]2C#C/C=C\C#C[C@H]3O)C(=O)c1ccccc1C4=O (stereo partly shown) [UCM, uncialamycin, reference compound] .
0.22

###

# Test system: central nervous system cell line SF-295
# experiment.summary: In vitro cytotoxic activity, CELLTITER 96 AQueous One Solution (MTS) assay, SF-295
# Type: cell-based, human
# condition.set: 72 h treatment, mean ± SD of 3 replicates, read-out: IC50 cytotoxicity, SF-295
quantity: pIC50
Scale explanation: pIC50 corresponds to minus log10 of a concentration expressed in moles per litre.

Please report the recorded pIC50 for CC(O)[C@@]12O[C@]13c1cc(O)c4c(c1N[C@H]2C#C/C=C\C#C[C@H]3O)C(=O)c1ccccc1C4=O (stereo partly shown) [UCM, uncialamycin, reference compound] .
9.29

###

# Tested on: central nervous system cell line SF-539
# experiment.summary: In vitro cytotoxic activity, CELLTITER 96 AQueous One Solution (MTS) assay, SF-539
# Format: cell-based, human
# condition.set: Homo sapiens, 72 h treatment, mean ± SD of 3 replicates, read-out: IC50 cytotoxicity, SF-539
For each record, write down the corresponding IC50.
Give your result in nM as a bare value.

Field: IC50 (central nervous system cell line SF-539). Entry: COc1ccc2c(c1O)C(=O)c1c3c(cc(O)c1C2=O)C12O[C@@]1([C@@H](C)O)[C@H](C#C/C=C\C#C[C@H]2O)N3 [TNM A, tiancimycin A]
0.3

Field: IC50 (central nervous system cell line SF-539). Entry: COC(=O)/C=C(\C)[C@@]12OC13c1cc(O)c4c(c1N[C@H]2C#C/C=C\C#C[C@H]3O)C(=O)c1ccccc1C4=O [TNM B, tiancimycin B]
0.23

Field: IC50 (central nervous system cell line SF-539). Entry: COC(=O)C(O)C(C)(O)[C@@]12OC13c1cc(O)c4c(c1N[C@H]2C#C/C=C\C#C[C@H]3O)C(=O)c1c(ccc(O)c1O)C4=O (stereo partly drawn) [TNM C, tiancimycin C]
0.3

###

# Test system: central nervous system cell line SF-539
# experiment.summary: In vitro cytotoxic activity, CELLTITER 96 AQueous One Solution (MTS) assay, SF-539
# Format: cell-based, human
# condition.set: 72 h treatment, mean ± SD of 3 replicates, read-out: IC50 cytotoxicity, SF-539
# Experimental: The in vitro cytotoxic activity (IC50, half maximal inhibitory concentration) of the tiancimycins was tested against selected human cancer cell lines, such as breast cancer cells MDA-MB-468, melanoma cell M14 and SK-MEL-5, non-small cell lung cancer cell NCI-H226, central nervous system cell lines SF-295 and SF-539, and the known enediyne UCM was used as a comparison. […] The absorbance at 490 nm was recorded using an ELISA plate reader. […] The IC50 was determined by computerized curve fitting. […]
quantity: pIC50
Scale explanation: pIC50 corresponds to minus log10 of a concentration expressed in moles per litre.

Field: pIC50 (central nervous system cell line SF-539). Entry: CC(O)[C@@]12O[C@]13c1cc(O)c4c(c1N[C@H]2C#C/C=C\C#C[C@H]3O)C(=O)c1ccccc1C4=O (stereo partly shown) [UCM, uncialamycin, reference compound]
9.17
